Measured folding stability dG unfold, listed per entry for reference.
assay: folding stability dG unfold from chymotrypsin proteolysis; higher = more stable
// note: answer is a bare numeric in kcal/mol

query: Look up and state reported folding stability dG unfold for SMKKKVVVKAKIEKIRPDGGKEELEEVFVMEVSPDDPEEIKAAIDEAIEALKKAYPNIKKIEIEEVIIEDSA [r9_436_TrMRF]
result: 3.36

query: Hello, please tell me recorded folding stability dG unfold for this one: SAGGMKVDPKTNITTIEFPSSNLPELKEAIEKTGEKPVVVILKDPNSDREVRITLTKEEALKYLEKKSAGGS [r16_797_JUSTAS]
result: 0.71

query: Recall and state the measured folding stability dG unfold for SEKVKKELNEAGYPVKDIKFVPEKGYAYITVEVYVPEVDKKVEKEIVIPFPDSATPEQLTEAARKALEADSA [r9_184_TrMRF] .
result: 3.04

query: Please supply the value of reported folding stability dG unfold for the item SAGGSAMLPDEVTVKPVEMPVPPDLTLEELEQEVRERAGPGTSVEVSYDPATGVATVTVTDARPALSAGGSA [r15_749_JUSTAS]
result: 1.44

query: For SAGGSAGGSAGVVRTDDGREVTVRRTVRVEVRLEITITASEEDREKAAAALERLLRELGLSAGGSAGGSAGG [r17_501_TrROS_Hall] , write its folding stability dG unfold.
result: 3.04

query: Return value of folding stability dG unfold for input SAGGSAPSSGNVLEIKVEKLPDGTLVGTLTVKDPNSSNTTTIEITIPSSKTPEEAEAELKKIVEEASAGGSA [r15_181_JUSTAS] , no commentary.
result: 2.09

query: Could you please provide reported folding stability dG unfold for SAGGDVTIEWFPMSEEEMKKMMEEMPPNTIMIPFPGNGYFIPVRVPDDPEEADKIAEEIRKWLEQLPSAGGS [r16_311_TrROS] ? Thanks!
result: 1.44
